Assay: In vivo percent mortality of cyclodiene resistant allele-homozygous CO fleas at 100 mM was determined using contact assay
Assay type: ADME, organism-based
Details: Pulicinae
QUANTITY: mortality at 100000 µM (%)
Numbers only; they are read as %.

Lab note: "CSc1nn(-c2c(Cl)cc(C(F)(F)F)cc2Cl)c(N)c1-c1ccccc1C" gave mortality at 100000 µM of 60.8

According to the records, this compound "CSc1nn(-c2c(Cl)cc(C(F)(F)F)cc2Cl)c(N)c1Cl" displays mortality at 100000 µM of 32.3

***
For this compound ( "CSc1nn(-c2c(Cl)cc(C(F)(F)F)cc2Cl)c(N)c1-c1ccccc1C(F)(F)F" ), measured mortality at 100000 µM is 58.7

---

Molecular target: GABA-A receptor; anion channel (Mus musculus) (UniProt Q8BHJ7+P26048+Q8QZW7+P50571+Q9R0Y8+P22723+A2AMW3+P62812+Q9JLF1+P26049+P22933+Q9D6F4+P63080+P27681+P16305)
Test: Ratio of binding affinity for mouse brain Gamma-aminobutyric acid receptor and housefly Gamma-aminobutyric acid receptor
Criterion: Selectivity strictly less than 400. Met: y. Not met: n.

Record excerpt, results attached:
Task: Given the entry "CSc1nn(-c2c(Cl)cc(C(F)(F)F)cc2Cl)c(N)c1-c1cccs1" , would its reported Selectivity be below 400?
Output: y

Task: Hi there! Is Selectivity for "COc1cccc(-c2c(SC)nn(-c3c(Cl)cc(C(F)(F)F)cc3Cl)c2N)c1" below 400, do you know?
Output: y

Task: Is Selectivity of "CSc1nn(-c2c(Cl)cc(C(F)(F)F)cc2Cl)c(N)c1-c1ccc(Cl)s1" strictly below 400?
Output: n

Task: Record "CSc1nn(-c2c(Cl)cc(C(F)(F)F)cc2Cl)c(N)c1C#N" : is its Selectivity strictly below 400?
Output: n

Task: Here's an entry: "CSc1nn(-c2c(Cl)cc(C(F)(F)F)cc2Cl)c(N)c1Cl" . Is its Selectivity below 400?
Output: y

Others:
Task: Answer whether the compound "CSc1nn(-c2c(Cl)cc(C(F)(F)F)cc2Cl)c(N)c1-c1cc(C(F)(F)F)cc(C(F)(F)F)c1" has Selectivity strictly less than 400
Output: y

Task: Please indicate whether the reported Selectivity of "CSc1ccc(-c2c(SC)nn(-c3c(Cl)cc(C(F)(F)F)cc3Cl)c2N)cc1" is strictly below 400.
Output: y

Task: Hi there! Is Selectivity for "CSc1nn(-c2c(Cl)cc(C(F)(F)F)cc2Cl)c(N)c1-c1cnccn1" below 400, do you know?
Output: y
